Reported pIC50 values follow for various molecules
Target: human PDE10A (Homo sapiens (Human))
pIC50: −log10 of the molar value.
READOUT_LABEL: pIC50

1) O=C(Nc1ccn(-c2ccc(F)cc2)n1)c1nc(C2CC2)ccc1Nc1cncnc1
7.64
2) O=C(Nc1cc(-c2ccccc2)nn1CCO)c1nc(C2CC2)ccc1Nc1cncnc1
6.91
3) O=C(Nc1cc(-c2ccccn2)nn1CC1CCCC1)c1nc(C2CC2)ccc1Nc1cncnc1
9.00

====

Reported IC50 values follow for various compounds
Biological target: human PDE10A (Homo sapiens (Human), UniProt Q9Y233)
Sequence (Q9Y233 other isoform, or with tags, fused parts or gaps): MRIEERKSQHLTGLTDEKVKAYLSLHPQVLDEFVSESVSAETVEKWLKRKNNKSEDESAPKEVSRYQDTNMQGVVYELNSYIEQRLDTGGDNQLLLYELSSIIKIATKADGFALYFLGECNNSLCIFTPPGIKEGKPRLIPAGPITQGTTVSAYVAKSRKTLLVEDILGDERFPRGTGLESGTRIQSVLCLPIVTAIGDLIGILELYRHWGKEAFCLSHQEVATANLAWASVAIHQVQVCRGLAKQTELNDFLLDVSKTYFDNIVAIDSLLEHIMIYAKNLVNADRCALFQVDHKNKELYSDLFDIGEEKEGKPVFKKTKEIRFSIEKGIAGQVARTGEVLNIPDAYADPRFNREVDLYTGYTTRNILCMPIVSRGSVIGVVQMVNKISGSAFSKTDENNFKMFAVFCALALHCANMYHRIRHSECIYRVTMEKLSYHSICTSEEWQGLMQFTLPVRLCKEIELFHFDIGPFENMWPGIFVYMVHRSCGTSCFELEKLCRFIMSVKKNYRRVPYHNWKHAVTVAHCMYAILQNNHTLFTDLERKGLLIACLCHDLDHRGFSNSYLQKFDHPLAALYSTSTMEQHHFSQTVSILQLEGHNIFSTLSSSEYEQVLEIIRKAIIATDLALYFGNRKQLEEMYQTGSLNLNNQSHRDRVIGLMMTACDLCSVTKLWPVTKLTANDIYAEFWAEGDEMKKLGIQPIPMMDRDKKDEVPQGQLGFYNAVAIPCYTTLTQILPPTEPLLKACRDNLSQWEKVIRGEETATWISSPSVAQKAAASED
READOUT_LABEL: IC50 (nM)

1. CCc1ccc(Nc2cncnc2)c(C(=O)Nc2cc(-c3ccccn3)nn2CCO)n1 [Example 34]
1
2. O=C(Nc1cnc(-c2ccccn2)s1)c1nc(C2CC2)ccc1Nc1cncnc1 [Example 62]
2
3. CN1CCC(n2nc(-c3ccccn3)cc2NC(=O)c2nc(C3CC3)ccc2Nc2cncnc2)CC1 [Example 43]
4
4. Cn1nc(-c2ccccn2)cc1NC(=O)c1nc(C2CC2)cnc1Nc1cncnc1 [Example 21]
4
5. Cc1ccc(Nc2cncnc2)c(C(=O)Nc2ccn(-c3ccccc3)n2)n1 [Example 1]
90
6. Cn1nc(-c2ccccn2)cc1NC(=O)c1nc(C2CCCCC2)ncc1Nc1cncnc1 [Example 60]
6
7. CC(C)(C)n1nc(-c2ccccn2)cc1NC(=O)c1nc(C2CC2)ccc1Nc1cncnc1 [Example 18]
13
8. O=C(Nc1cnn(-c2ccccn2)c1)c1nc(C2CC2)ccc1Nc1cncnc1 [Example 65]
55

====

Target: human PDE10A (Homo sapiens (Human), UniProt Q9Y233)
Assay: human PDE10A full length Scintillation Proximity Assay (SPA)
Assay type: biochemical
Conditions: 50 nM cGMP and 50 nM [3H]-cGMP, 20 minutes at room temperature, read-out: PDE10A inhibition IC50
READOUT_LABEL: IC50 (nM)

1) O=C(Nc1cc(-c2cccc(Cl)n2)nn1CCO)c1nc(C2CC2)ccc1Nc1cncnc1
1
2) CN(C)CCn1nc(-c2ccccn2)cc1NC(=O)c1nc(C2CC2)ccc1Nc1cncnc1
1
3) O=C(Nc1cc(-c2ccc(F)cc2)no1)c1nc(C2CC2)ccc1Nc1cncnc1
2450
4) COCc1ncc(Nc2cncnc2)c(C(=O)Nc2cc(-c3ccccn3)nn2C)n1
256
5) Cn1nc(NC(=O)c2nc(C3CC3)ccc2Nc2cncnc2)cc1-c1ccccn1
327
6) O=C(Nc1nnc(-c2ccccn2)o1)c1nc(C2CC2)ccc1Nc1cncnc1
2040
7) Cn1nc(-c2ccccn2)cc1NC(=O)c1nc(C(C)(C)C)ncc1Nc1cncnc1
4
8) COCc1ccc(Nc2cncnc2)c(C(=O)Nc2cc(-c3ccccn3)nn2CCO)n1
5
9) COCc1ccc(Nc2cncnc2)c(C(=O)Nc2cc(-c3ccccn3)nn2C)n1
7
10) Cc1cnc(Nc2cncnc2)c(C(=O)Nc2cc(-c3ccccn3)nn2CCO)n1
4
11) Cn1nc(-c2ccccn2)cc1NC(=O)c1nc(C2CC2)ccc1Nc1cncnc1
5
12) O=C(Nc1nnc(-c2cnccn2)s1)c1nc(C2CC2)ccc1Nc1cncnc1
744
13) O=C(Nc1nnc(-c2ccc(F)cc2)s1)c1nc(C2CC2)ccc1Nc1cncnc1
6380
14) O=C(Nc1nnc(-c2ccccc2)s1)c1nc(C2CC2)ccc1Nc1cncnc1
435
15) CC(C)c1ncc(Nc2cncnc2)c(C(=O)Nc2cc(-c3ccccn3)nn2C)n1
20
16) O=C(Nc1cc(-c2ccccn2)nn1CCc1ccccc1)c1nc(C2CC2)ccc1Nc1cncnc1
5
